- System: Staphylococcus aureus
- procedure.text: Antibacterial activity against clinical isolate of Staphylococcus aureus after 24 hrs by twofold microdilution broth method
- Type: functional
readout.name: MIC

- mol.smiles: "CCCCCNC(=O)c1c2n(c(=O)c3c(OC)c(OC)ccc13)CCc1cc(OC)c(OC)cc1-2"
  readout.name: "MIC"
  test.result: "> 250 µg/mL"

Input: Endpoint output: MIC of CCCCNCc1c2n(c(=O)c3c(OC)c(OC)ccc13)CCc1cc(OC)c(OC)cc1-2 . Value?
Output: > 250 µg/mL

Input: Endpoint output: MIC of CCC(=O)c1c2[n+](cc3c(OC)c(OC)ccc13)CCc1cc(OC)c(OC)cc1-2.[Cl-] . Value?
Output: > 250 µg/mL

Input: Endpoint output: MIC of CCCNCc1c2n(c(=O)c3c(OC)c(OC)ccc13)CCc1cc(OC)c(OC)cc1-2 . Value?
Output: > 250 µg/mL

Input: Endpoint output: MIC of CCCCCCCCNCc1c2n(c(=O)c3c(OC)c(OC)ccc13)CCc1cc(OC)c(OC)cc1-2 . Value?
Output: 31.2 µg/mL

Input: Endpoint output: MIC of CCCCCCCNCc1c2n(c(=O)c3c(OC)c(OC)ccc13)CCc1cc(OC)c(OC)cc1-2 . Value?
Output: 125 µg/mL

Input: Endpoint output: MIC of COc1cc2c(cc1OC)-c1c(C(=O)NCc3ccccc3)c3ccc(OC)c(OC)c3c(=O)n1CC2 . Value?
Output: > 250 µg/mL

Input: Endpoint output: MIC of CCCCCCCCCNCc1c2n(c(=O)c3c(OC)c(OC)ccc13)CCc1cc(OC)c(OC)cc1-2 . Value?
Output: 15.6 µg/mL

Input: Endpoint output: MIC of CCOC(=O)c1c2[n+](cc3c(OC)c(OC)ccc13)CCc1cc(OC)c(OC)cc1-2.[Cl-] . Value?
Output: > 250 µg/mL

Input: Endpoint output: MIC of COc1cc2c(cc1OC)-c1c(C(=O)NC3CC3)c3ccc(OC)c(OC)c3c(=O)n1CC2 . Value?
Output: > 250 µg/mL
